Data credit: paper PMC5540273

Provide the reported %Inh of each item.
Test system: TNK2
Test settings: concentration: 1 μM,replicates: in singlicate; n = 1;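 further: KINOMEscan kinase panel screen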
Give bare numbers, in %.

// below: answered compounds
Cn1ccc2ncnc(Oc3ccc(NC(=O)Nc4cccc(C(F)(F)F)c4)c(Cl)c3)c21	0
Cl.Cl.NC[C@H](CC1CCCCC1)NC(=O)c1ccc(-c2ccnc3[nH]ccc23)s1	0
CC(C(=O)NC1CCN(c2ccnc(Nc3ccc(F)cc3)n2)C1)c1ccc(Cl)cc1 (centres unmarked)	0
Cc1n[nH]c2cc(Nc3ccnc(Nc4cccc(CN5CCOCC5)c4)n3)ccc12	10
C[C@@H]1CNc2c(sc3ccc4nc(-c5ccc(O)cc5)ccc4c23)C(=O)N1	0

# return %Inh for each item in the list
1. Cl.c1ccc(Oc2ccc(Nc3ccnc4cc(-c5ccc(CN6CCNCC6)o5)ccc34)cc2)nc1
2. CS(=O)c1ccc(-c2coc3ccc(-c4n[nH]c(=O)o4)cc23)cc1 (centres unmarked)
3. Cc1ccc(Nc2ccnc(Nc3ccc4c(c3)CS(=O)(=O)C4)n2)cc1O.Cl
4. C[C@@H](Oc1cc(-n2cnc3cc(-c4cnn(C)c4)ccc32)sc1C(N)=O)c1ccccc1Cl

Response given:
38
0
80
64

Hey, can you go through the list below and give me %Inh for every item?
1. Cc1ccn2nc(-c3ccc(F)cc3)c(-c3ccncc3)c2c1.Cl
2. CC(C)c1nc(-c2cccc(NS(=O)(=O)c3ccccc3)c2)c(-c2ccnc(Nc3ccc4c(c3)CN(C)CC4)n2)s1

Response given:
1: 0; 2: 96.2

====

System: MST3
Construct: gene STK24
Test settings: concentration: 1 μM,replicates: in singlicate; n = 1
So I've got a bunch of compounds here, and I need their %Inh values.
Give bare numbers, in %.

Some compounds with known %Inh results, for comparison:
CN1CCN(CCNc2nc3cc(Oc4ccc(NC(=O)Nc5cc(C(F)(F)F)ccc5F)cc4)ccc3[nH]2)CC1.Cl.Cl	0
OCCn1cc(-c2cnc3nnn(Cc4ccc5ncccc5c4)c3n2)cn1	0
Cc1ccn2nc(-c3ccc(F)cc3)c(-c3ccncc3)c2c1.Cl	14
C[C@@H](Oc1cc(-n2cnc3cc(-c4ccncc4)ccc32)sc1C(N)=O)c1ccccc1Cl	0
CS(=O)c1ccc(-c2coc3ccc(-c4n[nH]c(=O)o4)cc23)cc1 (centres unmarked)	24

Batch: %Inh for all items listed.
1. Cn1ccc2ncnc(Oc3ccc(NC(=O)Nc4cccc(C(F)(F)F)c4)c(Cl)c3)c21
2. CC(C)c1nc(-c2cccc(NS(=O)(=O)c3ccccc3)c2)c(-c2ccnc(Nc3ccc4c(c3)CN(C)CC4)n2)s1
3. COc1cccc(C2=C(Nc3cccc(Cl)c3)C(=O)NC2=O)c1
4. C[C@@H](Oc1cc(-n2cnc3cc(-c4cnn(C)c4)ccc32)sc1C(N)=O)c1ccccc1Cl

Response given:
1: 18; 2: 82; 3: 0; 4: 0

I'm hoping you can list %Inh for every compound here, please.
1. CC(=O)Nc1ccc(-c2cc3ncnc(SCC(=O)O)c3s2)cc1
2. Cn1ccc2ncnc(Oc3ccc(NC(=O)Nc4cc(C(C)(C)C)on4)c(Cl)c3)c21
3. Cn1ccc2ncnc(Oc3ccc(NC(=O)Nc4cnn(C(C)(C)C)c4)c(Cl)c3)c21
4. C[C@@H]1CNc2c(sc3ccc4nc(-c5ccncc5)ccc4c23)C(=O)N1
5. COc1cc2ncn(-c3cc(OCC4CCCCC4)c(C(N)=O)s3)c2cc1OC
6. COc1cccc(OC)c1C(=O)Nc1cccc(-c2nn3ccccc3c2-c2ccnc(Nc3cccc(F)c3)n2)c1
7. C[C@@H]1CCN(C(=O)N2CCCC2)C[C@@H]1N(C)c1ncnc2[nH]ccc12
8. O=C(Nc1ccc(Oc2ccc3nc(NC(=O)C4CC4)cn3n2)c(F)c1)c1cccn(-c2ccccc2)c1=O

Response given:
1. 24
2. 6
3. 4
4. 10
5. 0
6. 7
7. 25
8. 0

====

Tested on: STK16
Test settings: concentration: 1 μM,replicates: in singlicate; n = 1
Measured attribute: %Inh (%)
One number for each entry, in %.

See these solved cases before continuing.
C[C@@H]1CNc2c(sc3ccc4nc(-c5ccc(O)cc5)ccc4c23)C(=O)N1	30
O=C(Nc1cccc(Oc2ccc3nccn3n2)c1)Nc1cccc(C(F)(F)F)c1	9
CCn1c(-c2nonc2N)nc2cncc(CNC3CCNCC3)c21.Cl	15

Need %Inh for each of these compounds.
1. Cn1ccc2ncnc(Oc3ccc(NC(=O)Nc4ccnc(C(F)(F)F)c4)c(Cl)c3)c21
2. COC(=O)c1cccc(NC(=O)NC2CCN(c3ccnc(Nc4cc(OC)c(OC)c(OC)c4)n3)C2)c1 (stereo not shown)
3. O=C(Nc1n[nH]c2cc(-c3ccco3)ccc12)C1CC1
4. Cc1nnc(-c2ccc3occ(-c4ccc(S(C)=O)cc4)c3n2)o1 (stereo not shown)
5. Cn1ccc2ncnc(Oc3ccc(NC(=O)Nc4cc(C(C)(C)C)on4)c(Cl)c3)c21
6. CCOC(=O)N1CCC(n2cnc(-c3ccc(F)cc3)c2-c2ccnc(N)n2)CC1

Response given:
[0, 61, 49, 11, 2, 6]

Parameters: items (list). Returns: %Inh for each item.
1. CS(=O)(=O)Nc1ccc(-c2ccnc3[nH]ccc23)cc1
2. CS(=O)c1ccc(-c2coc3ccc(-c4n[nH]c(=O)o4)cc23)cc1 (stereo not shown)
3. OCCn1cc(-c2cnc3nnn(Cc4ccc5ncccc5c4)c3n2)cn1
4. Cc1ccc(C(=O)Nc2ccc(Oc3ccc4nc(NC(=O)C5CC5)cn4c3)c(F)c2)c(=O)n1-c1ccccc1

Response given:
1: 81; 2: 52; 3: 0; 4: 17

Quick batch: %Inh for everything below.
1. COc1cccc(OC)c1C(=O)Nc1cccc(-c2nn3ccccc3c2-c2ccnc(Nc3cccc(F)c3)n2)c1
2. CCN1CCN(CCCC(=O)Nc2n[nH]c3nc(-c4ccc(O)cc4)c(Br)cc23)CC1
3. COC(=O)c1cccc(NC(=O)NC2CCN(c3ccnc(NCc4ccc(F)cc4)n3)CC2)c1

Response given:
1: 29; 2: 2; 3: 0

Please give %Inh for each item listed below.
1. Cl.Nc1n[nH]c2cc(-c3ccccn3)ccc12
2. CS(=O)(=O)c1cccc(CNc2nc(Nc3ccc4c(c3)[C@@H]3C[C@@H]4CNC3=O)ncc2C(F)(F)F)c1
3. Nc1nccc(-c2ccc3c(N)n[nH]c3c2)n1
4. O=C(NCC1CC1)c1ccc(-c2cc(C(=O)NC3CC3)ccc2F)cc1
5. NC(=O)c1ccc(-c2cc3ncnc(SCC(=O)O)c3s2)cc1
6. COc1cccc(CNC(=O)NC2CCN(c3ccnc(Nc4cc(OC)c(OC)c(OC)c4)n3)C2)c1 (stereo not shown)
7. COc1cc(Nc2nccc(N3CCC(NC(=O)c4cccc(C#N)c4)C3)n2)cc(OC)c1OC (stereo not shown)
8. CCCC(=O)Nc1n[nH]c2ncccc12

Response given:
1: 22; 2: 97.3; 3: 29; 4: 4; 5: 54; 6: 64; 7: 64; 8: 3

Challenge: # get_value(readout='%Inh', item= "O=C(NOCC1CC1)c1cc(Br)c(F)c(F)c1Nc1ccc(I)cc1Cl" )
Response given: 20

====

System: SIK
Test settings: concentration: 1 μM,replicates: in singlicate; n = 1
Measured attribute: %Inh (%)
Answers are plain numbers, in %.

Below are worked cases with known answers.
Cc1ccc(C(=O)Nc2ccc(Oc3ccc4nc(NC(=O)C5CC5)cn4c3)c(F)c2)c(=O)n1-c1ccccc1	94.9
CC(=O)Nc1ccc(-c2cc3ncnc(SCC(=O)O)c3s2)cc1	6
C[C@@H](Oc1cc(-n2cnc3cc(-c4ccncc4)ccc32)sc1C(N)=O)c1ccccc1Cl	11
CN(c1ccc2c(c1)nc(NCc1ccc(F)cc1)n2C)c1ccnc(Nc2ccc(CS(C)(=O)=O)cc2)n1.Cl	0
CN(c1cccc(CNc2nc(Nc3ccc4c(c3)CC(=O)N4)ncc2C(F)(F)F)c1)S(C)(=O)=O	25

Could you report %Inh for every entry in the following list?
1. Cn1ccc2ncnc(Oc3ccc(NC(=O)Nc4cccc(C(F)(F)F)c4)c(F)c3)c21
2. O=C1NCCc2[nH]c(-c3ccncc3)cc21
3. O=C(Nc1cccc(Oc2ccc3nccn3n2)c1)Nc1cccc(C(F)(F)F)c1

Response given:
1: 28; 2: 13; 3: 17

====

Provide the reported %Inh of each item.
Test system: AURKB
Test settings: concentration: 1 μM,replicates: in singlicate; n = 1
Answer with the figure and its unit, nothing else.

For each of the molecules below, state %Inh.
1. O=C(Nc1ccc(Oc2ccc3nc(NC(=O)C4CC4)cn3n2)c(F)c1)c1cccn(-c2ccccc2)c1=O
2. CC(C)S(=O)(=O)N1CCN(Cc2ccc3c(c2)nc(NC(=O)c2ccsc2)n3C[C@H](O)c2ccccc2)CC1

Response given:
1. 4%
2. 0%

====

System: PAK3
Test settings: concentration: 1 μM,replicates: in singlicate; n = 1
Group membership follows %Inh per the scheme zone 1 (below 20%), zone 2 (20% to below 50%), zone 3 (50% or more)

CC(C)S(=O)(=O)N1CCN(Cc2ccc3c(c2)nc(NC(=O)c2ccsc2)n3C[C@H](O)c2ccccc2)CC1	zone 1
CN(c1ccccc1CNc1nc(Nc2ccc3c(c2)CC(=O)N3)ncc1C(F)(F)F)S(C)(=O)=O	zone 3
CCN1CCN(CCCC(=O)Nc2n[nH]c3nc(-c4ccc(O)cc4)c(Br)cc23)CC1	zone 2
CCCC(=O)Nc1n[nH]c2ncccc12	zone 1
COc1cc2ncn(-c3cc(OCC4CCCCC4)c(C(N)=O)s3)c2cc1OC	zone 1

Okay, now this compound:
Challenge: Field: class (%Inh) — entry: "COc1cc2c(Nc3ccc(NC(=O)c4ccccc4)cc3)ncnc2cc1OCCCN1CCOCC1"
Response given: zone 2
